Data provenance is patent US9340577B2.

biological target: DRB4*0101 (Homo sapiens, UniProt P01903+P13762, G164S); assay: biochemical; format: binding
No end group written: not given here.
Readout Name: pIC50
# pIC50 = -log10(concentration in molar units)

Consider the following illustrative entries.
ITHIGHQVVPPMAVS [Peptide 90.0010] :: 5.91
QQLLQVQTAHADKQT [Peptide 89.0115] :: 6.03
RNLVDGNPISLDRKH [Peptide 89.0137] :: 6.00

Q. For the sequence IIHLKGDKNSLKCLR [Peptide 90.0218] , give its measured pIC50 value.
A. 5.84

----------
target: HLA-A3.2 (A*0301) (Homo sapiens, UniProt P04439); assay: biochemical; format: binding
No end group written: not given here.
Readout Name: IC50

// below: answered sequences
TALIKPKKR [Peptide 9017.0102] :: > 20000 nM
SQIEHWKLIR [Peptide 88.0213] :: 16600 nM
ITVSAELPR [Peptide 1556.18] :: > 20000 nM
GLGISYGRK [Peptide 1577.25] :: 64 nM
MTYVAWDSVY [Peptide 1589.07] :: 616 nM
VTVYYGVPVWR [Peptide 1525.01] :: 560 nM
GSQPKTACNK [Peptide 9017.0202] :: 472 nM
TVDVYMIMVK [Peptide 9012.0257] :: 11100 nM

Q. Recall the reported IC50 of ISYGRKKRRQK [Peptide 73.0314] when tested on HLA-A3.2 (A*0301) (Homo sapiens, UniProt P04439).
A. 48 nM

Q. Report its IC50 with HLA-A3.2 (A*0301) (Homo sapiens, UniProt P04439) as the test system: AAEGVGAVSR [Peptide 9017.0188]
A. 16000 nM

Q. Param request: IC50 | system HLA-A3.2 (A*0301) (Homo sapiens, UniProt P04439) | item RAHSSHLR [Peptide 1556.71]
A. 1910 nM

Q. Under HLA-A3.2 (A*0301) (Homo sapiens, UniProt P04439), report IC50 for QSNPYPEPK [Peptide 9017.0070]
A. 1040 nM

Q. Report value: IC50, system: HLA-A3.2 (A*0301) (Homo sapiens, UniProt P04439), sequence: KVCSGVDYR [Peptide 1589.35]
A. > 20000 nM

Q. # assay system HLA-A3.2 (A*0301) (Homo sapiens, UniProt P04439): give IC50 of ILTAFNSSHK [Peptide 1589.03]
A. 12 nM

Q. Provide HLA-A3.2 (A*0301) (Homo sapiens, UniProt P04439) IC50 reading for VTVKIGGELK [Peptide 1516.03] .
A. 4110 nM

Q. Report its IC50 with HLA-A3.2 (A*0301) (Homo sapiens, UniProt P04439) as the test system: QVVPPINISK [Peptide 1589.23]
A. 1280 nM

Q. GET IC50 | system: HLA-A3.2 (A*0301) (Homo sapiens, UniProt P04439) | item: WTIVYIEYRK [Peptide 9017.0243]
A. 4890 nM

Q. Answer with IC50 of KIKPPLPSVR [Peptide 9017.0234] measured for HLA-A3.2 (A*0301) (Homo sapiens, UniProt P04439).
A. 1110 nM

Q. Report value only: IC50, HLA-A3.2 (A*0301) (Homo sapiens, UniProt P04439), VVYRDSIPH [Peptide 78.0275]
A. 401 nM

----------
biological target: HLA-A*0201 (HLA-A2.1) (Homo sapiens, UniProt P04439, D140Y/D185E/D98H/E176V/E277Q/G131W/G231S/I119V/I121R/I166T/I218V/L300P/L318F/N151K/N90K/P208A/P217A/Q86G/Q94H/R138H/R169H/T345S); experiment: biochemical; format: binding
No end group written: not given here.
Readout Name: IC50

Here's what some known entries look like.
SLNRSDPVT [Peptide 9013.0099] :: > 20 µM
QLSNGNRTLV [Peptide 9013.0229] :: > 20 µM

Now turn to the next sequence.
Q. Please indicate IC50 recorded for VIKSDLVNEEV [Peptide 9013.0278]
A. > 20 µM

----------
biological target: A*6801 (Homo sapiens, UniProt P04439, A269V/D185E/E176V/E277Q/E87N/F33Y/G231S/I121M/I166T/I218V/L180W/L300P/L318F/N151K/P208A/P217A/Q86R/R169H/T345S); assay: biochemical; assay type: binding
No end group written: not given here.
Consider the following sequences and their measured log10(IC50) readings.
Hey, these are logged values: log10 of IC50, µM being the unit before logging.

RQLFLNTVK [Peptide 1589.44] :: 1.21
NSNAAAFLK [Peptide 88.0342] :: -1.66

Q. Please supply the value of reported log10(IC50) for the item KQSRAAKRR [Peptide 88.0325]
A. 0.05

Q. State, in one line, measured log10(IC50) of TVHVYFDGNK [Peptide 1589.24]
A. -1.01

----------
biological target: A31 (A*3101) (Homo sapiens, UniProt P04439, A270S/D185E/E176V/E277Q/F33T/G231S/G80R/H175R/I121M/I218V/I322F/K168Q/L300P/L318F/M331R/P217A/Q94H/R138Q/T323A/T345S/T97I/V358M); assay: biochemical; assay type: binding
No end group written: not given here.
Readout Name: IC50

GVVFGILIKK [Peptide 9012.0242] :: > 20000 nM
HLYGYSWYK [Peptide 76.0153] :: 48 nM
SLKCLRYRLK [Peptide 88.0217] :: 2690 nM

Q. Using known records, supply IC50 for IVIKRRQQK [Peptide 9012.0206]
A. 712 nM

Q. Return IC50 (reported value) for this sequence: VTVKIGGELK [Peptide 1516.03]
A. > 20000 nM

Q. Kindly indicate its recorded IC50. Item: RLECAIYYK [Peptide 1589.01]
A. 150 nM

Q. Give the reported IC50 for this sequence. TVHVYFDGNK [Peptide 1589.24]
A. > 20000 nM

Q. Tell me its IC50 given MLVRFKCAK [Peptide 1587.30] as the entry.
A. 85 nM

Q. Give recorded IC50. TTTYSPALNK [Peptide 1556.41]
A. > 20000 nM

Q. Item RILSTYLGR [Peptide 9017.0072] : provide IC50
A. 1.6 nM

Q. // Input: SSIVGWPAVR [Peptide 9017.0185] . Output its IC50 only.
A. 26 nM

----------
molecular target: A31 (A*3101) (Homo sapiens, UniProt P04439, A270S/D185E/E176V/E277Q/F33T/G231S/G80R/H175R/I121M/I218V/I322F/K168Q/L300P/L318F/M331R/P217A/Q94H/R138Q/T323A/T345S/T97I/V358M); assay: biochemical; format: binding
No end group written: not given here.
Catalogue of log10(IC50) readings, one per entry.
Hey, these are logged values: log10 of IC50, nM being the unit before logging.

QSNPYPEPK [Peptide 9017.0070] :: 2.71

Q. Entry GVMCRHYKR [Peptide 88.0388] needs its log10(IC50) filled in; supply it.
A. 1.57

Q. Determine its reported log10(IC50): LLYGAANTGK [Peptide 1587.12]
A. 3.83

Q. Recall and state the measured log10(IC50) for VTVYDGVPVWK [Peptide 1539.09] .
A. 4.26

Q. Check the records and state log10(IC50) for RQMSMGQWIK [Peptide 1587.35]
A. 1.68

Q. Output measured log10(IC50) for this item: SFFQNLQVIR [Peptide 9012.0232]
A. 2.64

Q. Using the record for VTIKIGGQIR [Peptide 1516.05] , state its measured log10(IC50).
A. 3.06

Q. Specify log10(IC50) for TVQVYFDGNK [Peptide 88.0202] and stop.
A. 3.66

Q. Give log10(IC50) for the following sequence: VLCGPPNTGK [Peptide 88.0189]
A. 2.57

----------
target: DRB1*1201 (Homo sapiens, UniProt P01903+P01911, A100R/A169T/D57E/D86V/F55L/H45Y/K41T/L162R/M171V/P40S/Q125H/Q178H/Q39Y/Q99D/R42G/S66L/T262R/V114A/V67L/W38E/Y59H/Y61H/Y89S); experiment: biochemical; type: binding
pIC50: −log10 of the molar value. No end group written: not given here.
pIC50 for assorted sequences

GKVFRGNKVKNAQLA [Peptide 68.0096] :: < 4.70

Q. // Input: PDGQAEQATSNYYIV [Peptide 1543.43] . Output its pIC50 only.
A. < 4.70

Q. Please give measured pIC50 of the following entry: NGVLQGITSWGPEPC [Peptide 68.0017]
A. < 4.70

Q. Let me know recorded pIC50 for DNELTDDSDIAYYYA [Peptide 90.0085] , thanks.
A. < 4.70
